test system: HeLa cervical adenocarcinoma; assay: Cell proliferation inhibition assay (14C-thymidine incorporation), HeLa; format: cell-based; conditions: Homo sapiens, HeLa cells
readout_label: IC50 (µM)

- item_smiles: "FC(F)(F)c1cnc(-c2n[nH]cc2C=Cc2cncc3ccccc23)[nH]1"
  target_desc: "HeLa cervical adenocarcinoma"
  IC50 / µM: 3.58
- item_smiles: "CCNCc1cncc(/C=C/c2c[nH]nc2-c2nc(C(F)(F)F)c[nH]2)c1"
  target_desc: "HeLa cervical adenocarcinoma"
  IC50 / µM: 3.18

====

target: human CDK1 catalytic subunit and cyclin B (Homo sapiens, UniProt P06493); construct: 6020; assay: CDK1 screening assay (33P-ATP FlashPlate); conditions: 10 μM ATP, 1 hr at 30° C.
Sequence (P06493 whole entry): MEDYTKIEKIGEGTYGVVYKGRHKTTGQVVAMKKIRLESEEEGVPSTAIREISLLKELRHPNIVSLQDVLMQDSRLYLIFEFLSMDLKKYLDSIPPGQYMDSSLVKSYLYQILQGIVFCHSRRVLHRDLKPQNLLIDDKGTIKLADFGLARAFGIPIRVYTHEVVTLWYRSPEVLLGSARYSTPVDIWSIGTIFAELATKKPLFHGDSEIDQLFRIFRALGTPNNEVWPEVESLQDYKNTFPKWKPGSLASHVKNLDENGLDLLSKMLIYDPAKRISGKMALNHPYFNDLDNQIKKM
Sequence (P14635 whole entry partner): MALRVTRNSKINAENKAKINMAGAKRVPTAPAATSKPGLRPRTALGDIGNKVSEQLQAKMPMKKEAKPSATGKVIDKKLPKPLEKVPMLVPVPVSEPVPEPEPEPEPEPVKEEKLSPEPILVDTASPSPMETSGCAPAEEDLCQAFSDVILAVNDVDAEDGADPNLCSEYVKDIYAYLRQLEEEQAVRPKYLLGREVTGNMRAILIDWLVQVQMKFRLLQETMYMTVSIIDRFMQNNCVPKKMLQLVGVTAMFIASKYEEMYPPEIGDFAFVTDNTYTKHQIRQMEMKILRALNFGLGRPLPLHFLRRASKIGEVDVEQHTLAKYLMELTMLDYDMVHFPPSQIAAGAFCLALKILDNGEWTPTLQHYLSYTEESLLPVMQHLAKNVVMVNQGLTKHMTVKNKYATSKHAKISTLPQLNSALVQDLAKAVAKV
pIC50: −log10 of the molar value.
readout_label: pIC50

- item_smiles: "FC(F)(F)c1c[nH]c(-c2n[nH]cc2/C=C/c2cccnc2)n1"
  target_desc: "human CDK1 catalytic subunit and cyclin B (Homo sapiens, UniProt P06493)"
  pIC50: 6.32

I. N#Cc1c[nH]c(-c2n[nH]cc2/C=C/c2cccnc2)n1
II. FC(F)(F)c1cnc(-c2n[nH]cc2C=Cc2cncc3ccccc23)[nH]1
III. CCNCc1cncc(/C=C/c2c[nH]nc2-c2nc(C(F)(F)F)c[nH]2)c1
Inquiry: rank_up(items): orders items by reported pIC50 in ascending numerical order. Would you mind listing the labels in the order asked for?
Reply text: I, II, III
(I: 6.15, II: 6.95, III: 7.74)

====

target: rat VEGF-R2 kinase domain (polyhistidine fusion, amino acids 786 to 1343) (Rattus norvegicus, UniProt O08775); construct: amino acids 786 to 1343 of the rat VEGF-R2 kinase domain; polyhistidine (N); test: VEGFR2 screening assay (33P-ATP FlashPlate); settings: 10 μM ATP, 1 hr at 30° C.
Sequence (O08775 786-1343): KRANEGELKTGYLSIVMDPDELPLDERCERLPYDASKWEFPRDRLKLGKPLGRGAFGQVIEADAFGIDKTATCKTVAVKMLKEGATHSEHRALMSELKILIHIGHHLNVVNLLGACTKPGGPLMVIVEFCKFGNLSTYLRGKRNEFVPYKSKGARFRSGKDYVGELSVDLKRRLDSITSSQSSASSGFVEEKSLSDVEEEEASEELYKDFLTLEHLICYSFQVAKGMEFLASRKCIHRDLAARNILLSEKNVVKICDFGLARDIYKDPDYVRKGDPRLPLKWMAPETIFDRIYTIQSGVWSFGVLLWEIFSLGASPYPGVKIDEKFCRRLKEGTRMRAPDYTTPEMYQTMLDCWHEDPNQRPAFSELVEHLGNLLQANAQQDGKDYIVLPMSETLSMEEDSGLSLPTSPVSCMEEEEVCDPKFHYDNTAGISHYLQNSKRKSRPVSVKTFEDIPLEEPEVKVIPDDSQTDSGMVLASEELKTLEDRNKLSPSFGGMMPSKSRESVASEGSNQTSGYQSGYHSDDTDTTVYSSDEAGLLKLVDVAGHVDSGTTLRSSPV
readout_label: IC50 (µM)

P. FC(F)(F)c1cnc(-c2n[nH]cc2C=Cc2cncc3ccccc23)[nH]1
Q. FC(F)(F)c1c[nH]c(-c2n[nH]cc2/C=C/c2cccnc2)n1
Inquiry: Could you tell me which of P and Q has the lower IC50 reading? Please respond with the label that marks your chosen entry.
Reply text: P
(P: 3.06 µM, Q: 29.4 µM)

====

Target: murine Aurora-A (polyhistidine fusion, full length) (Mus musculus, UniProt P97477)
Construct: followed by the full length protein encoding the murine Aurora-A; polyhistidine (N)
Sequence (P97477 1-395): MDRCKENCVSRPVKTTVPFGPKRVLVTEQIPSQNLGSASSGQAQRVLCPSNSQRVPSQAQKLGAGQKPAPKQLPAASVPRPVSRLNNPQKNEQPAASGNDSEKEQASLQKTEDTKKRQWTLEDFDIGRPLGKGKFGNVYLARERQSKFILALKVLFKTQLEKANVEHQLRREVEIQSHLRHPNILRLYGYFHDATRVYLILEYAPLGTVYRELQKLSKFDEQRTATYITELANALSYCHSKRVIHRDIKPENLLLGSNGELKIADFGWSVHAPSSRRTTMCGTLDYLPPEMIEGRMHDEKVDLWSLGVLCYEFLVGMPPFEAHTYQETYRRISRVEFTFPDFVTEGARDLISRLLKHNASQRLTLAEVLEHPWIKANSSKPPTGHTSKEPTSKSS
Test: Aurora-A screening assay (33P-ATP FlashPlate)
Details: 10 μM ATP, 1 hr at 30° C.
readout_label: IC50 (µM)

I. FC(F)(F)c1cnc(-c2n[nH]cc2C=Cc2cncc3ccccc23)[nH]1
II. FC(F)(F)c1c[nH]c(-c2n[nH]cc2/C=C/c2cccnc2)n1
Inquiry: Could you tell me which of I and II has the lower IC50 reading? Please respond with the label that marks your chosen entry.
Reply text: II
(II: 0.117 µM, I: 0.297 µM)

====

tested on: HCT-116 colon carcinoma; test: Cell proliferation inhibition assay (14C-thymidine incorporation), HCT-116; format: cell-based; details: Homo sapiens, HCT-116 cells
readout_label: IC50 (µM)

a. N#Cc1c[nH]c(-c2n[nH]cc2/C=C/c2cccnc2)n1 [Cpd 3]
b. FC(F)(F)c1cnc(-c2n[nH]cc2C=Cc2cncc3ccccc23)[nH]1 [Cpd 4]
Inquiry: Which has the higher IC50, a or b ? Please respond with the label that marks your chosen entry.
Reply text: a

1. CCNCc1cncc(/C=C/c2c[nH]nc2-c2nc(C(F)(F)F)c[nH]2)c1 [Cpd 1]
2. FC(F)(F)c1c[nH]c(-c2n[nH]cc2/C=C/c2cccnc2)n1 [Cpd 2]
Inquiry: Could you tell me which of 1 and 2 has the lower IC50 reading? Please respond with the label that marks your chosen entry.
Reply text: 1
(1: 1.75 µM, 2: 23.8 µM)
